System: R11-AMACH smooth pigweed
Assay: Greenhouse screen of ALS-inhibiting herbicides on resistant smooth pigweed biotype
Format: in vivo, Amaranthus hybridus L.
Settings: rate 1/10×, 3 WAT, plant dry weight
I would appreciate it if you labelled entries MET when Biomass is 4 g or higher, otherwise NOT MET.

Answered cases to consult:
| compound | targetDesc | labelValue |
| --- | --- | --- |
| CCc1cnc(C2=NC(C)(C(C)C)C(=O)N2)c(C(=O)O)c1 (centres unmarked) [imazethapyr] | R11-AMACH smooth pigweed | NOT MET |
| COc1cc(Cl)nc(NC(=O)NS(=O)(=O)c2ccccc2C(=O)O)n1 [chlorimuron] | R11-AMACH smooth pigweed | NOT MET |
| COc1cc(OC)nc(Sc2cccc(Cl)c2C(=O)O)n1 [pyrithiobac] | R11-AMACH smooth pigweed | NOT MET |

In plain terms: is recorded Biomass at least 4 g for COc1nc(C)nc(NC(=O)NS(=O)(=O)c2ccsc2C(=O)O)n1 [thifensulfuron] ?
MET

Record: CCOc1nc(F)cc2nc(S(=O)(=O)Nc3c(Cl)cccc3C(=O)OC)nn12 [cloransulammethyl]
MET
